Could you please report measured MIC for the items listed next?
# Test system: Staphylococcus epidermidis
# test summary: Antibacterial activity against Staphylococcus epidermidis ATCC 35984 incubated for 18 to 24 hrs by micro-dilution method
# Format: functional
# experimental context: RP62A
Give your result in µM as a bare value.

// sample `Cc1ccc(-n2cc(COC(=O)c3cn(C4CC4)c4cc(N5CCN(Cc6cn(-c7ccc(C)cc7Cl)nn6)CC5)c(F)cc4c3=O)nn2)c(Cl)c1` , its MIC was 8.42

Lookup result for `CCc1ccc(-n2cc(COC(=O)c3cn(C4CC4)c4cc(N5CCN(Cc6cn(-c7ccc(CC)cc7)nn6)CC5)c(F)cc4c3=O)nn2)cc1` ; measured MIC: 71.2

Kindly note the recorded MIC for `C#CCOC(=O)c1cn(C2CC2)c2cc(N3CCN(CC#C)CC3)c(F)cc2c1=O` , which is 1.92

MIC in this record for `O=C(OCc1cn(-c2ccccc2)nn1)c1cn(C2CC2)c2cc(N3CCN(Cc4cn(-c5ccccc5)nn4)CC3)c(F)cc2c1=O` : 38.7

Summary for this compound, `CC(=O)c1ccc(-n2cc(COC(=O)c3cn(C4CC4)c4cc(N5CCN(Cc6cn(-c7ccc(C(C)=O)cc7)nn6)CC5)c(F)cc4c3=O)nn2)cc1` : MIC is 2.14

Per the records, this compound ( `O=C(OCc1cn(-c2ccc(F)cc2Cl)nn1)c1cn(C2CC2)c2cc(N3CCN(Cc4cn(-c5ccc(F)cc5Cl)nn4)CC3)c(F)cc2c1=O` ) has MIC equal to 4.16

For this compound ( `O=C(OCc1cn(-c2cccc(Cl)c2)nn1)c1cn(C2CC2)c2cc(N3CCN(Cc4cn(-c5cccc(Cl)c5)nn4)CC3)c(F)cc2c1=O` ), measured MIC is 1.09

The compound listed as `Cc1cc(C)cc(-n2cc(COC(=O)c3cn(C4CC4)c4cc(N5CCN(Cc6cn(-c7cc(C)cc(C)c7)nn6)CC5)c(F)cc4c3=O)nn2)c1` shows MIC equal to 142

In plain terms, `O=C(OCc1cn(-c2ccc(F)c(Cl)c2)nn1)c1cn(C2CC2)c2cc(N3CCN(Cc4cn(-c5ccc(F)c(Cl)c5)nn4)CC3)c(F)cc2c1=O` has a documented MIC of 8.33

For `O=C(OCc1cn(-c2cccc(Cl)c2Cl)nn1)c1cn(C2CC2)c2cc(N3CCN(Cc4cn(-c5cccc(Cl)c5Cl)nn4)CC3)c(F)cc2c1=O` the compound record lists MIC as 3.99

---

# Tested on: Escherichia coli
# test summary: Antibacterial activity against Escherichia coli ATCC 25922 incubated for 18 to 24 hrs by micro-dilution method
# Assay type: functional
readout: MIC

MIC in this record for `O=C(OCc1cn(-c2ccc(Cl)cc2Cl)nn1)c1cn(C2CC2)c2cc(N3CCN(Cc4cn(-c5ccc(Cl)cc5Cl)nn4)CC3)c(F)cc2c1=O` : > 128 µM

Per the records, this compound ( `CCCCCc1ccc(-n2cc(COC(=O)c3cn(C4CC4)c4cc(N5CCN(Cc6cn(-c7ccc(CCCCC)cc7)nn6)CC5)c(F)cc4c3=O)nn2)cc1` ) has MIC equal to > 127 µM

// MIC value for `O=C(OCc1cn(-c2ccccc2)nn1)c1cn(C2CC2)c2cc(N3CCN(Cc4cn(-c5ccccc5)nn4)CC3)c(F)cc2c1=O` : > 155 µM

Value source: ChEMBL document CHEMBL3875147
